Values compiled from PubChem BioAssay (Tox21).

experiment: p53 small molecule agonists, cell-based qHTS assay: qHTS cell viability counter screen (AID 1963581); details: p53RE-bla HCT-116 viability, ATP luminescence, 16 h; series mostly up to 66 µM; further: nearly all actives have a fitted effect of over 45% in size
Records with an inconclusive call do not appear. Activity calls are given as the source filed them. The call rests on the fitted dose curve.
Pick one and only one: TRUE (active), FALSE (inactive)

[Q] Check the results log: what was the call for `Cn1c(CCCC(=O)O)nc2cc(N(CCCl)CCCl)ccc21` ?
[A] FALSE

[Q] Record lookup: outcome of this test for `Nc1ccc([N+](=O)[O-])cc1` ?
[A] TRUE

[Q] Test call, this compound: `CC[C@H](C)[C@H]1O[C@]2(C=C[C@@H]1C)C[C@@H]1C[C@@H](C/C=C(\C)[C@@H](O[C@H]3C[C@H](OC)[C@@H](O[C@H]4C[C@H](OC)[C@@H](NC)[C@H](C)O4)[C@H](C)O3)[C@@H](C)/C=C/C=C3\CO[C@@H]4[C@H](O)C(C)=C[C@@H](C(=O)O1)[C@]34O)O2`
[A] TRUE

[Q] Which result was noted for this compound in the test: `CCN(CC)C(=O)[C@@H]1C=C2c3cccc4[nH]cc(c34)C[C@H]2N(C)C1`
[A] FALSE

[Q] Outcome? O=C(NC(=O)c1c(F)cccc1F)Nc1ccc(OC(F)(F)C(F)OC(F)(F)F)c(Cl)c1 (centres undefined)
[A] FALSE

[Q] Hi, do you know how `CCOC(=O)c1cn2nc(OP(=S)(OCC)OCC)cc2nc1C` came out in this test?
[A] FALSE
